Values compiled from ChEMBL document CHEMBL4706703.

# procedure_text: Antioxidant activity assessed as trolox equivalent of AAPH radical scavenging activity measured every min for 90 mins by ORAC-FL assay
# Assay type: functional
# true (1) = Activity below 2 equiv (exclusive); false (0) = Activity at/above 2 equiv

Solved cases (10 shown):
compound=CCN(CC)c1ccc(/C=C2/OC(=O)c3cc(OC)c(OC)cc32)cc1O assigned_label="false (0)"
compound=COc1cc2c(cc1OC)/C(=C\c1ccc(N3CCOCC3)c(O)c1)OC2=O assigned_label="true (1)"
compound=COc1cc2c(cc1OC)/C(=C\c1ccc(N3CCCC3)c(O)c1)OC2=O assigned_label="false (0)"
compound=CCN(CC)c1cc(/C=C2/OC(=O)c3cc(OC)c(OC)cc32)ccc1O assigned_label="false (0)"
compound=CCN(CC)c1c(O)cccc1/C=C1\OC(=O)c2cc(OC)c(OC)cc21 assigned_label="false (0)"
compound=COc1cc2c(cc1OC)/C(=C\c1ccc(N3CCN(C)CC3)c(O)c1)OC2=O assigned_label="false (0)"
compound=COc1cc2c(cc1OC)/C(=C/c1cccc(O)c1N1CCOCC1)OC2=O assigned_label="true (1)"
compound=CCN(CC)c1cc(/C=C2\OC(=O)c3cc(OC)c(OC)cc32)ccc1O assigned_label="false (0)"
compound="COc1cc2c(cc1OC)C(Cc1cccc(O)c1)OC2=O (stereo not given)" assigned_label="true (1)"
compound=COc1cc2c(cc1OC)/C(=C\c1ccc(N3CCCCC3)c(O)c1)OC2=O assigned_label="true (1)"

For "COc1cc2c(cc1OC)/C(=C\c1cccc(O)c1N1CCOCC1)OC2=O" , is the recorded Activity below the cut-off of 2 equiv?
false (0)

Say whether its Activity is strictly beneath 2 equiv. Entry: COc1cc2c(cc1OC)C(Cc1ccc(N3CCN(C)CC3)c(O)c1)OC2=O (stereo not given)
false (0)

Item "CCN(CC)c1ccc(/C=C2\OC(=O)c3cc(OC)c(OC)cc32)cc1O" : Activity beneath 2 equiv, strictly?
false (0)

Problem: For the compound "COc1cc2c(cc1OC)/C(=C/c1ccc(N3CCN(C)CC3)c(O)c1)OC2=O" , is Activity under 2 equiv?
true (1)

In the record for "COc1cc2c(cc1OC)/C(=C\c1cccc(O)c1N1CCCC1)OC2=O" , is Activity less than 2 equiv?
false (0)

Does the reported Activity of the following compound sit strictly below 2 equiv? COc1cc2c(cc1OC)C(Cc1cccc(O)c1N1CCN(C)CC1)OC2=O (stereo not given)
false (0)

Please determine if "COc1cc2c(cc1OC)/C(=C\c1cccc(O)c1N1CCCCC1)OC2=O" is below 2 equiv in terms of Activity.
false (0)

Please indicate whether the reported Activity of COc1cc2c(cc1OC)C(Cc1ccc(N3CCCCC3)c(O)c1)OC2=O (stereo not given) is strictly below 2 equiv.
false (0)

Input CCN(CC)c1ccc(CC2OC(=O)c3cc(OC)c(OC)cc32)cc1O (stereo not given) ; condition: Activity strictly below 2 equiv. Does it hold?
false (0)
